- test system: Recombinant human FAP (Homo sapiens)
- Construct: purchased R&D systems
- Sequence (Q12884 whole entry): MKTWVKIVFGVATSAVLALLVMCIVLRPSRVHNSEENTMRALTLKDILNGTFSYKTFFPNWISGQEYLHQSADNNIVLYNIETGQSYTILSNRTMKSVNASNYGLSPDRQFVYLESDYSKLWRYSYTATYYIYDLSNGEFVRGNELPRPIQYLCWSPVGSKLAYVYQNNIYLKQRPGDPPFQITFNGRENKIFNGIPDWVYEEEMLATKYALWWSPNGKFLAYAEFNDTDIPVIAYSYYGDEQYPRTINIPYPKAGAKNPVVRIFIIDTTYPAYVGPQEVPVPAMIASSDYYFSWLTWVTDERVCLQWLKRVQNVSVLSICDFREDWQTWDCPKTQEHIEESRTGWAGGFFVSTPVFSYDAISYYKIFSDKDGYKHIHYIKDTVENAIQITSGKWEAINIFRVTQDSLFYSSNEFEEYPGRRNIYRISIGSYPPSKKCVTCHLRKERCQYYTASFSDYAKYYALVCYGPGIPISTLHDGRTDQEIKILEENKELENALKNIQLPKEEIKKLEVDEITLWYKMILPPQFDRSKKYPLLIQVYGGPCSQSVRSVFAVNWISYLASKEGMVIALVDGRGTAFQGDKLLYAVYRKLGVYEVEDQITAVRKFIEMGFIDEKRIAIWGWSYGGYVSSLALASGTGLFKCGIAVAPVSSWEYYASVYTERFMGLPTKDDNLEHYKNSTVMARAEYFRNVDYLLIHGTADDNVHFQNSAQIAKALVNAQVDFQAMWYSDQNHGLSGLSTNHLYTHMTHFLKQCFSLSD
- assay notes: FAP FRET assay, FGF21-sequence FRET peptide substrate
- Assay type: biochemical
- condition label: FRET peptide with human FGF21 sequence, 6 μM, 37° C.
observable: pIC50
The read-out pIC50 is expressed as -log10 of concentration in moles per litre.

Looking for the measured pIC50 of N#C[C@@H]1C[C@H](F)CN1C(=O)CN1CC[C@H](Nc2cc(C(F)(F)F)c3ncccc3c2)C1 [Example 280] , can you help? 8.68

Looking for the measured pIC50 of N#C[C@@H]1CCCN1C(=O)CN1CCC(Nc2cccc3ncc(C(F)(F)F)cc23)CC1 [Example 387] , can you help? 7.49

More entries:
Looking for the measured pIC50 of N#C[C@@H]1C[C@H](F)CN1C(=O)CN1CC[C@H](Nc2cccc3ncccc23)C1 [Example 228] , can you help? 8.52

Looking for the measured pIC50 of Cc1ccc(NC2CCN(CC(=O)N3C[C@@H](F)C[C@H]3C#N)CC2)c2cccnc12 [Example 331] , can you help? 8.19
